# assay.procedure: Protein binding in Beagle dog serum at 32 ug/kg, iv
# Type: ADME, organism-based, Canis lupus familiaris
# condition.description: 0.032 mg/kg, read-out: PB (converted)
observed.property: fraction unbound

I = CCOC(=O)COc1ccc2c(c1)C[C@@H](NC[C@H](O)c1cccc(Cl)c1)CCC2
II = O=C(O)c1ccc(-c2ccc3c(c2)C[C@@H](NC[C@H](O)c2ccc(Cl)cc2)CC3)cc1
III = COc1ccc(Oc2ccc3c(c2)C[C@@H](NC[C@H](O)c2ccc(Cl)nc2)CC3)cc1C(=O)O
Using the list above, order everything by rising fraction unbound. Record the ranking as a list of labels in the requested order.
II, I, III
(II: 0.03, I: 0.06, III: 0.1)
